- System: tau protein (Homo sapiens, UniProt P10636)
- Construct: fused on or other part: Split fluorescent-protein halves for BiFC are fused to tau; In the published tau-BiFC line these are Venus VN173 and VC155
- Sequence (P10636 2-441 isoform P10636-8 limits assumed): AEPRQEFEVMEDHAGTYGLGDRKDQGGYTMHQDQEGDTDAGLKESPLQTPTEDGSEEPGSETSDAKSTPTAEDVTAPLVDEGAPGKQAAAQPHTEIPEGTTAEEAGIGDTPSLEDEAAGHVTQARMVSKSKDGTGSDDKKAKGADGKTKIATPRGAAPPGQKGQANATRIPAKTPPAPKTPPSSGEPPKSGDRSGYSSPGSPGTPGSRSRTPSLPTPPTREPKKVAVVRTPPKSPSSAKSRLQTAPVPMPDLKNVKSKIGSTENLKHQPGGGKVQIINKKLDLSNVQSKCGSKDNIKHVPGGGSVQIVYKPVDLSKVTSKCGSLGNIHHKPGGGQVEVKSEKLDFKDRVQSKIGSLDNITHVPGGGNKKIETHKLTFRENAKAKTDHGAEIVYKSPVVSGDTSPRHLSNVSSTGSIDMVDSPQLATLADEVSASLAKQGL
- Assay Procedure: Tau-BiFC cell model: inhibition of tau protein aggregation
- Condition: Tau BiFC in cells; with Forskolin 30 μM, 48 hours
This section presents compounds with their documented IC50 values.
Endpoint: IC50 (nM)

>>> val("N#CC(C#N)=NNc1ccc(NC(=O)c2cnc3ccccc3n2)nc1")
310
>>> val("Cc1ccc(NC(=O)c2ccc(NN=C(C#N)C#N)cc2)cn1")
2580
>>> val("N#CC(C#N)=NNc1ccc(NC(=O)c2nc3ccccc3s2)nc1")
540
>>> val("COc1ccc(NC(=O)c2ccc(NN=C(C#N)C#N)cc2OC)cc1")
1400
>>> val("Cc1cnc(C(=O)Nc2ccc(NN=C(C#N)C#N)cc2Cl)cn1")
110
>>> val("Cc1cnc(NC(=O)c2ccc(NN=C(C#N)C#N)c(F)c2)cn1")
1850
>>> val("N#CC(C#N)=NNc1ccc(NC(=O)c2cccc(C(F)(F)F)c2)nc1")
710
>>> val("COc1cc(NN=C(C#N)C#N)ccc1C(=O)Nc1cncc(C)c1")
600
>>> val("Cc1ccc(C(=O)Nc2ccc(NN=C(C#N)C#N)cn2)cc1F")
320
>>> val("Cc1cnc(COc2ccc(NN=C(C#N)C#N)cc2C)cn1")
147
>>> val("N#CC(C#N)=NNc1ccc(NC(=O)c2ccccc2)nc1")
90
>>> val("Cc1ccc(NC(=O)c2ccc(NN=C(C#N)C#N)cn2)cn1")
990
>>> val("COc1cc(NN=C(C#N)C#N)ccc1OCc1ccc(C)cc1")
32
>>> val("Cc1cc(NN=C(C#N)C#N)ccc1OCc1cc[nH]n1")
22
>>> val("N#CC(C#N)=NNc1ccc(NC(=O)c2ccccc2F)nc1")
310
>>> val("N#CC(C#N)=NNc1ccc(OCc2ccc(C(F)(F)F)cc2)c(C(F)(F)F)c1")
250
>>> val("Cc1cc(NN=C(C#N)C#N)ccc1Oc1cccnc1")
440
>>> val("N#CC(C#N)=NNc1ccc(NC(=O)c2ccc(F)cc2)nc1")
110
>>> val("COc1cc(NN=C(C#N)C#N)ccc1OCc1cnccn1")
7
>>> val("N#CC(C#N)=NNc1ccc(OCCc2ccccc2)cc1")
1860

----------
- System: tau protein (Homo sapiens, UniProt P10636)
- Construct: fused on or other part: Split fluorescent-protein halves for BiFC are fused to tau; In the published tau-BiFC line these are Venus VN173 and VC155
- Assay Procedure: Tau-BiFC cell model: inhibition of tau protein aggregation
- Condition: Tau BiFC in cells; with Forskolin 30 μM, 48 hours
Measured IC50, listed per entry.
Endpoint: IC50 (µM)

>>> val("N#CC(C#N)=NNc1ccc(OCCc2ccc(C(F)(F)F)cc2)nc1")
2.35
>>> val("N#CC(C#N)=NNc1ccc(NC(=O)c2cccc(F)c2)nc1")
0.66
>>> val("COc1cc(NN=C(C#N)C#N)ccc1C(=O)Nc1ccc(C)cc1")
1.4
>>> val("N#CC(C#N)=NNc1ccc(Oc2cncnc2)c(F)c1")
2.96
>>> val("COc1cc(NN=C(C#N)C#N)ccc1C(=O)Nc1cncc(C)n1")
0.4

----------
- System: CYP3A4 (Homo sapiens)
- Construct: human liver microsomes (0.25 mg/mL); from tissue; host or cells: human liver microsomes
- Sequence (P08684 whole entry): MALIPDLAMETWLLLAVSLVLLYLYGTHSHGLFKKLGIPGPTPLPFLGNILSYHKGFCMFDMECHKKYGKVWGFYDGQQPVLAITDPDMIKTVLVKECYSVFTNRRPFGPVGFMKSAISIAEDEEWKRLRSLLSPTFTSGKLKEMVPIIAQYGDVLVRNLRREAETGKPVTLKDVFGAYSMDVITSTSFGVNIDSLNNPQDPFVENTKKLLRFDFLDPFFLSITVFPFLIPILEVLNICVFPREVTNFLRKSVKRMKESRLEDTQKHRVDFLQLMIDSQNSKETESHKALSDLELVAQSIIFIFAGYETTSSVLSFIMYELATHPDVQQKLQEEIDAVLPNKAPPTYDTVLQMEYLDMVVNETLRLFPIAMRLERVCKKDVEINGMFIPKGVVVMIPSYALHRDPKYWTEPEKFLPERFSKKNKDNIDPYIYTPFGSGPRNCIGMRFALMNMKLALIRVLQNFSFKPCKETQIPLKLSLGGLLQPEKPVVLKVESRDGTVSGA
- Assay Procedure: Inhibitory effect on CYP coenzyme activity, human liver microsomes
- Assay type: in vitro ADME
- Condition: compound 10 μM; human liver microsomes 0.25 mg/mL; substrate midazolam; 15 minutes
Is CYP3A4 at least 90? Then 1. If not, 0.

>>> discrete_label("N#CC(C#N)=NNc1ccc(NC(=O)c2ccoc2)nc1")
1
>>> discrete_label("N#CC(C#N)=NNc1ccc(NC(=O)c2ccc(F)cc2)nc1")
0
>>> discrete_label("COc1cc(NN=C(C#N)C#N)ccc1OCc1ccc(C)cc1")
0
>>> discrete_label("COc1cc(NN=C(C#N)C#N)ccc1OCc1cccnc1")
0
>>> discrete_label("Cc1cccc(C(=O)Nc2ccc(NN=C(C#N)C#N)cn2)c1F")
0

----------
- Test system: Tau-BiFC cells
- Assay Procedure: Cell viability (cytotoxicity) in tau-BiFC cells, count of stained nuclei
- Assay type: cell-based
- Condition: compound 10 μM; Forskolin-only group = 100% cell viability
Endpoint: Cell viability (% @10 μM) (%)

>>> val("N#CC(C#N)=NNc1ccc(NS(=O)(=O)c2ccc(F)cc2)nc1")
114.2
>>> val("Cc1cnc(C(=O)Nc2ccc(NN=C(C#N)C#N)cc2C)cn1")
88
>>> val("COc1ccc(CCOc2ccc(NN=C(C#N)C#N)cn2)cc1")
54.5
>>> val("COc1ccc(NS(=O)(=O)c2ccc(NN=C(C#N)C#N)cc2)cc1")
123.9
>>> val("N#CC(C#N)=NNc1ccc(Oc2ccccc2)nc1")
117

----------
- System: tau protein (Homo sapiens, UniProt P10636)
- Construct: fused on or other part: Split fluorescent-protein halves for BiFC are fused to tau; In the published tau-BiFC line these are Venus VN173 and VC155
- Assay Procedure: Tau-BiFC cell model: inhibition of tau protein aggregation
- Format: cell-based
- Condition: 48 h; compound 10 μM; BiFC fluorescence, Forskolin-only group = 100% tau protein-aggregated state; read-out: Response (% @10 μM)
We begin with a simple list: items and their reported remaining activity at 10 µM.
Endpoint: remaining activity at 10 µM

>>> val("N#CC(C#N)=NNc1ccc(Oc2cncnc2)c(F)c1")
"0%"
>>> val("N#CC(C#N)=NNc1ccc(Oc2cccc(F)c2)nc1")
"0%"
>>> val("N#CC(C#N)=NNc1ccc(Oc2nccs2)cc1")
"0%"
>>> val("COc1ccc(NC(=O)c2ccc(NN=C(C#N)C#N)cn2)cc1")
"34.2%"
>>> val("Cc1cnc(NC(=O)c2ccc(NN=C(C#N)C#N)cc2)cn1")
"0%"

----------
- Assay Procedure: Liver microsome stability
- Type: in vitro ADME, human
- Condition: amount of substrate remaining; compound 1 μM, 30 minutes, 37° C., NADPH
Each entry below carries its reported Human (%).
Endpoint: Human (%)

>>> val("Cc1cc(NN=C(C#N)C#N)ccc1OCc1cnccn1")
74.9
>>> val("Cc1cnc(NC(=O)c2ccc(NN=C(C#N)C#N)cc2)cn1")
96.8
>>> val("COc1cc(NN=C(C#N)C#N)ccc1OCc1cccs1")
73.3
>>> val("N#CC(C#N)=NNc1ccc(Oc2cccc(F)c2)nc1")
8.4
>>> val("Cc1cc(NN=C(C#N)C#N)ccc1OCc1cc2ccccc2s1")
80.7
>>> val("COc1cc(NN=C(C#N)C#N)ccc1C(=O)Nc1cnc(C)cn1")
84.1
>>> val("COc1cc(NN=C(C#N)C#N)ccc1OCc1cc[nH]n1")
54.8
>>> val("N#CC(C#N)=NNc1ccc(NC(=O)c2cccs2)nc1")
94.8
>>> val("Cc1ccc(NC(=O)c2ccc(NN=C(C#N)C#N)cn2)cn1")
99.1
>>> val("N#CC(C#N)=NNc1ccc(NC(=O)c2cccc(C(F)(F)F)c2)nc1")
72.5
>>> val("Cc1cc(NN=C(C#N)C#N)ccc1OCc1cccnn1")
93.7
>>> val("N#CC(C#N)=NNc1ccc(NC(=O)c2nc3ccccc3s2)nc1")
28.7

----------
- Test system: Tau-BiFC cells
- Assay Procedure: Cell viability (cytotoxicity) in tau-BiFC cells, count of stained nuclei
- Format: cell-based
- Condition: compound 10 μM; Forskolin-only group = 100% cell viability
Consider the cut-off 90%. If the recorded Cell viability (% @10 μM) is strictly smaller, the label is yes; if not, the label is no.

>>> discrete_label("Cc1cnc(NC(=O)c2ccc(NN=C(C#N)C#N)cc2)cn1")
"no"
>>> discrete_label("N#CC(C#N)=NNc1ccc(NC(=O)c2ccccc2F)nc1")
"no"
>>> discrete_label("CN(N=C(C#N)C#N)c1ccc(Oc2cccc(F)c2)nc1")
"no"
>>> discrete_label("Cc1cc(C(=O)Nc2ccc(NN=C(C#N)C#N)cn2)ccc1F")
"no"
>>> discrete_label("Cn1cc(S(=O)(=O)Nc2ccc(NN=C(C#N)C#N)cn2)cn1")
"no"
>>> discrete_label("Cc1cnc(C(=O)Nc2ccc(NN=C(C#N)C#N)cc2F)cn1")
"yes"
>>> discrete_label("N#CC(C#N)=NNc1ccc(Oc2cccnc2)c(F)c1")
"no"
>>> discrete_label("N#CC(C#N)=NNc1ccc(OCc2nc3ccccc3o2)cc1")
"no"
>>> discrete_label("N#CC(C#N)=NNc1ccc(OCc2cc3ccccc3s2)cc1")
"no"
>>> discrete_label("CN(N=C(C#N)C#N)c1ccc(Oc2ccccc2)c(C(F)(F)F)c1")
"yes"
>>> discrete_label("Cc1ccc(C(=O)Nc2ccc(NN=C(C#N)C#N)cn2)cc1")
"no"
>>> discrete_label("COc1cc(NN=C(C#N)C#N)ccc1C(=O)Nc1cncc(C)n1")
"no"
>>> discrete_label("Cc1cncc(NC(=O)c2ccc(NN=C(C#N)C#N)cc2)n1")
"no"
>>> discrete_label("N#CC(C#N)=NNc1ccc(OCCc2ccc(C(F)(F)F)cc2)c(C(F)(F)F)c1")
"yes"
>>> discrete_label("N#CC(C#N)=NNc1ccc(OCCc2ccc(C(F)(F)F)cc2)cc1")
"yes"
>>> discrete_label("N#CC(C#N)=NNc1ccc(Oc2ccccc2)c(C(F)(F)F)c1")
"yes"
>>> discrete_label("N#CC(C#N)=NNc1ccc(Oc2ccccc2)cn1")
"no"
>>> discrete_label("N#CC(C#N)=NNc1ccc(OCCc2ccc(Cl)cc2)c(C(F)(F)F)c1")
"yes"
